The reported numbers originate from EPA's ToxValDB 9.5.

Tested on: Rattus norvegicus
Conditions: repeat dose other; oral
Form field: log10 LOAEL (one value per entry).
In plain terms, each number is the log10 of measured LOAEL in mg/kg-day.

As a guide, the following entries are already answered.
Compound: CO
Target entity: Rattus norvegicus
log10 LOAEL: 2.40

Compound: Clc1cc2oc3cc(Cl)c(Cl)c(Cl)c3c2cc1Cl
Target entity: Rattus norvegicus
log10 LOAEL: -2.80

Compound: [Cl][Cd][Cl] [Cadmium chloride]
Target entity: Rattus norvegicus
log10 LOAEL: 1.00

Compound: [Mn+2].[Mn+3].[Mn+3].[O-2].[O-2].[O-2].[O-2] [Manganese oxide (Mn3O4)]
Target entity: Rattus norvegicus
log10 LOAEL: 2.45

Now take the following compound into account.
Form entry - test system: Rattus norvegicus; read-out: log10 LOAEL; compound: [Na+].[O]=[V](=[O])[O-] [Sodium metavanadate]
0.32
